Just for reference, patent US20110009447A1 is where these values come from.

# melting point listing for each entry below
readout_name: melting point

[[record]]
structure_notation = "O=C(NCC1CCCCC1)c1ccccc1CCc1ccncc1"
readout_name = "melting point"
assay_value = "105 to 107 °C"

[[record]]
structure_notation = "CCCc1ccc(NC(=O)c2ccccc2CCc2ccc(OC)cc2)cc1"
readout_name = "melting point"
assay_value = "113.7 °C"

[[record]]
structure_notation = "O=C(Nc1ccc(Cl)cc1)c1cccc(C#Cc2cccnc2)c1"
readout_name = "melting point"
assay_value = "179 °C"

[[record]]
structure_notation = "COc1ccc(/C=C\\c2ccccc2C(=O)Nc2ccc(Cl)cc2)cc1"
readout_name = "melting point"
assay_value = "137.9 °C"

